Entries and their measured pIC50 follow.
# target entity: α4β1 integrin (Homo sapiens (Human), UniProt P05556+P13612)
# Sequence (P13612 34-1032): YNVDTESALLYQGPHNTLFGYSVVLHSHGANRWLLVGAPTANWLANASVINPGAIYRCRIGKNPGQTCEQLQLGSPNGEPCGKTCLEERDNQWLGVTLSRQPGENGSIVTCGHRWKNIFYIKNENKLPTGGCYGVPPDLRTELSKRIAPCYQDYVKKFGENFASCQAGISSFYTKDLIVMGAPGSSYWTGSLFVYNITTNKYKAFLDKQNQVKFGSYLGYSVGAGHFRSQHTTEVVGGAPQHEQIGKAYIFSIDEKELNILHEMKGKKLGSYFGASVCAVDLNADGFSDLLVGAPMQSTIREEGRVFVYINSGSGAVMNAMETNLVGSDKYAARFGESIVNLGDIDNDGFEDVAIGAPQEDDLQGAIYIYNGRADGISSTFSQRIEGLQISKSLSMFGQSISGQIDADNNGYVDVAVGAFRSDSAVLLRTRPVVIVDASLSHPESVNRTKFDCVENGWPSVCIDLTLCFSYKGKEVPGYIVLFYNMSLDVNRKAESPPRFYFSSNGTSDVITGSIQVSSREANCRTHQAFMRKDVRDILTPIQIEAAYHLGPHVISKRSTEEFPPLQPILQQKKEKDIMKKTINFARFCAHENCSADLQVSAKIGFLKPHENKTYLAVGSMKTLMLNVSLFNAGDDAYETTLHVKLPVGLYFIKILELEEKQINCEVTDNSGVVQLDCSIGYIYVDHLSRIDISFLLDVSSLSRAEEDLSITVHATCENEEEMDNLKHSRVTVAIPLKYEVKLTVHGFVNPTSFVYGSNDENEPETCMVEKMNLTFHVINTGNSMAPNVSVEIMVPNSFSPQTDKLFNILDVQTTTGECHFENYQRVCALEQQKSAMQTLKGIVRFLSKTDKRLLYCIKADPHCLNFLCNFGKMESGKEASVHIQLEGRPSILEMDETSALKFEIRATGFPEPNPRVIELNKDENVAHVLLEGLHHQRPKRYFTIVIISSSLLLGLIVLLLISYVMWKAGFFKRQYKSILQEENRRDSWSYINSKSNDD
# Sequence (P05556 21-798): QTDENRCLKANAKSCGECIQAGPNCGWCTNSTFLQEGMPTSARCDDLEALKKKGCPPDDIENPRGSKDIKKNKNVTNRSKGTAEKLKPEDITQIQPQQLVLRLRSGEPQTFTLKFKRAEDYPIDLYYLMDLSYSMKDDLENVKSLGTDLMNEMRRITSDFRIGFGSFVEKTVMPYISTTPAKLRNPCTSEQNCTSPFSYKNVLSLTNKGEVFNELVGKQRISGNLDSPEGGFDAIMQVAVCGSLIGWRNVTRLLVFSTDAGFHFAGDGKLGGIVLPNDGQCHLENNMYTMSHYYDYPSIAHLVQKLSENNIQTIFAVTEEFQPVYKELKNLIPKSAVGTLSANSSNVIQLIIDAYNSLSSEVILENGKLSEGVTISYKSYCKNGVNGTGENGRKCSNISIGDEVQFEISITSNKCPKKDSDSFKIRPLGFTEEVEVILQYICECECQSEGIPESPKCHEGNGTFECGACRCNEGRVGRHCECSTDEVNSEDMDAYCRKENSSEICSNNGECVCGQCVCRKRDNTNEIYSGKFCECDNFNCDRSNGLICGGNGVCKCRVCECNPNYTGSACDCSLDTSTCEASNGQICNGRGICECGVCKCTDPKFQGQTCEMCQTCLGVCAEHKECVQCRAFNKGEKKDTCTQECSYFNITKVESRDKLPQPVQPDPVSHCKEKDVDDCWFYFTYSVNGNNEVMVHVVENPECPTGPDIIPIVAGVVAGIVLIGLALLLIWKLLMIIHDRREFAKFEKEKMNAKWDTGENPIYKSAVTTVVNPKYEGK
# measurement protocol: Integrin Adhesion Assay: Protocol 5 (VCAM-coated plate, RPMI-8866 cells with stable LOF mutation of the ITGB7 gene)
# Assay type: cell-based
# experimental conditions: RPMI-8866 cells with stable LOF mutation of the ITGB7 gene; read-out: Mean IC50 α4β1 KO^b
pIC50: −log10 of the molar value.

Known pIC50 results, listed for orientation:
# input compound: CN(C)c1ccc2c(-c3cccc4c(C[C@H](NC(=O)c5c(F)cc(N6CCOC[C@@H]6C(F)(F)F)cc5CN5CCOCC5)C(=O)O)cccc34)nccc2c1 [Compound 299] ; wanted: its pIC50 < 6.00

Next: COc1ccc(CN2CC(F)C2)c(OC)c1-c1cccc2c(C[C@H](NC(=O)c3c(C)cccc3F)C(=O)O)cccc12 [Compound 590] < 6.00

Next: CN(C)Cc1cccc2c(-c3cccc4c(C[C@H](NC(=O)C5(C(F)(F)F)CCN([C@@H]6CCOC6)CC5)C(=O)O)cccc34)nccc12 [Compound 592] < 6.00

More entries:
# input compound: Cn1c(=O)c(-c2cccc3c(C[C@H](NC(=O)C4(C)CCN([C@@H]5CCOC5)CC4)C(=O)O)cccc23)c(C(F)(F)F)c2ccccc21 [Compound 414] ; wanted: its pIC50 < 6.00

Next: COc1ccc(CN(C)C)c(OC)c1-c1cccc2c(C[C@H](NC(=O)c3c(Cl)cccc3Cl)C(=O)O)cccc12 [Compound 612] 6.00 to 7.00

Next: COc1ccc(CN(C)C)c(OC)c1-c1cccc2c(C[C@H](NC(=O)c3c(F)cccc3C3CC3)C(=O)O)cccc12 [Compound 645] < 6.00
